Taken from paper PMC5540273.

Test system: PRKG2
conditionContext: concentration: 1 μM, replicates: in singlicate; n = 1;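 also: KINOMEscan kinase panel screen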
experimentalEndpoint: %Inh (%)
Reply with just the number (in %).

Record excerpt, results attached:
INSERT INTO results (compoundstructurestring, testedtarget, readingunit, recordedmeasurement) VALUES
  ('COc1ccc(-c2coc3ccc(-c4nnc(SCc5ccc(OC)c(C(F)(F)F)c5)o4)cc23)cc1', 'PRKG2', '%', 14),
  ('CN1CCN(CCCNc2nccc(-c3c(-c4ccc(F)cc4)nn4cc(C(F)(F)F)ccc34)n2)CC1', 'PRKG2', '%', 0);

In: Need %Inh, item `CCn1c(-c2nonc2N)nc2c(C#CC(C)(C)O)ncc(OCCCCN)c21.O=C(O)C(F)(F)F.O=C(O)C(F)(F)F`
Out: 96

In: Moving on to `COc1cc2c(cc1OCCN1CCNCC1)ncc1c3ccc(C#N)cc3[nH]c21`
Out: 7

----------
System: MYLK2
conditionContext: concentration: 1 μM, replicates: in singlicate; n = 1
experimentalEndpoint: %Inh (%)
Reply with just the number (in %).

INSERT INTO measurements (molecule, testedtarget, recordedmeasurement) VALUES
  ('CSc1cccc2c(-c3ccncn3)c(-c3ccc(F)cc3)nn12', 'MYLK2', 0),
  ('Cc1cccc(Nc2nc(N[C@H]3CCNC3)ncc2C(N)=O)c1.Cl', 'MYLK2', 0),
  ('Cl.NC(=O)c1cccc(Nc2nccc(Nc3ccc(Oc4c(Cl)cccc4Cl)c(Cl)c3)n2)c1', 'MYLK2', 0),
  ('O=C(Nc1n[nH]c2nc(-c3ccc(O)cc3)ccc12)C1CC1', 'MYLK2', 79),
  ('Cc1ccc(C(=O)Nc2ccc(Nc3ccnc4cc(-c5nccs5)ccc34)cc2O)cc1.Cl', 'MYLK2', 11);

In: Need %Inh, item `Cc1occc1-c1ncc(OC[C@@H](N)Cc2c[nH]c3ccccc23)cc1-c1ccc2[nH]nc(C)c2c1.O=C(O)C(F)(F)F`
Out: 21

In: Moving on to Cl.Cl.NCC(NC(=O)c1cc(-c2ccccc2)c(-c2ccnc3[nH]ccc23)s1)c1ccccc1 (centres unmarked)
Out: 17

In: Moving on to `C[C@@H]1CC[C@@H](C(=O)Nc2ccccc2)CN1c1cc(-c2ccc3c(N)n[nH]c3c2)nc(N)n1`
Out: 0

----------
Tested on: PRKD2
conditionContext: concentration: 1 μM, replicates: in singlicate; n = 1
experimentalEndpoint: %Inh (%)
Reply with just the number (in %).

INSERT INTO measurements (compound, recordedmeasurement) VALUES
  ('Fc1ccc(-c2ncn(C3CCNCC3)c2-c2ccnc(Oc3ccc(-c4ccccc4)cc3)n2)cc1', 0),
  ('Cl.Cl.NCC(NC(=O)c1cc(-c2ccccc2)c(-c2ccnc3[nH]ccc23)s1)c1ccccc1 (stereo not shown)', 8),
  ('C[C@@H](Oc1cc(-n2cnc3cc(-c4ccnc(NCCS(C)(=O)=O)c4)ccc32)sc1C(N)=O)c1ccccc1Cl', 0);

In: Need %Inh, item Cl.Cl.NCC(NCc1ccc(-c2ccnc3[nH]ccc23)s1)c1ccccc1 (stereo not shown)
Out: 21

In: Moving on to `COc1ccc(CNC(=O)NC2CCN(c3ccnc(Nc4ccc(F)cc4)n3)CC2)cc1`
Out: 6

In: Moving on to `Cc1ccc(C(=O)N2CC[C@@H](O)C2)cc1-n1c(C)cc(OCc2ccc(F)cc2F)c(Br)c1=O`
Out: 0

In: Moving on to `O=C(Nc1cccc(-c2nn3ccccc3c2-c2ccnc(Nc3cccc(C(F)(F)F)c3)n2)c1)c1c(F)cccc1F`
Out: 0

In: Moving on to `COc1cc(Nc2ncc3c(C)nc(-c4cc5ccccc5[nH]4)n3n2)cc(OC)c1OC`
Out: 0
